Source: patent US20210380703A1

molecular target: mouse ACVR2A (mouse, UniProt P27038 20-135, limits assumed); assay: ELISA; also: test concentration or dose not given here
Sequence (P27038 20-135 limits assumed): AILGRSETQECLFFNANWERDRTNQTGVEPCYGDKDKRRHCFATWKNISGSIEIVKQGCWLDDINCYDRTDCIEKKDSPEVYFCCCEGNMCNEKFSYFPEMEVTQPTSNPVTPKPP
Quantity name: optical density (OD)
Respond numerically; units are OD and should not be typed.

Binder: 368_C04 (antibody, V domains shown, Group II) VH: EVQLLESGGGLVQPGGSLRLSCAASGFTFDSYGMHWVRQAPGKGLEWVSNINYNGGYTSYADSVKGRFTISRDNSKNTLYLQMNSLRAEDTAVYYCARAATWHDTHLDYWGQGTLVTVSS VL: DIQMTQSPSSLSASVGDRVTITCRASQSILSYVNWYQQKPGKAPKLLIYAATSRASGVPSRFSGSGSGTDFTLTISSLQPEDFATYYCQQSYSTPLTFGGGTKVEIK
optical density (OD): 2.47
//
Binder: 368_B03 (antibody, V domains shown, Group I) VH: EVQLLESGGGLVQPGGSLRLSCAASGFTFDDYGMNWVRQAPGKGLEWVSGINYNGGYTSYADSVKGRFTISRDNSKNTLYLQMNSLRAEDTAVYYCARAANWHDTALDYWGQGTLVTVSS VL: DIQMTQSPSSLSASVGDRVTITCRASQSILTYLNWYQQKPGKAPKLVIYAATSLASGVPSRFSGSGSGTDFTLTISSLQPEDFATYYCQHSYENPLTFGGGTKVEIK
optical density (OD): 2.04

input: Which value of optical density has been reported for 375_G08 (antibody, V domains shown, Group II) VH: EVQLLESGGGLVQPGGSLRLSCAASGFTFSSYGMHWVRQAPGKGLEWVSGINYNGGYTSYADSVKGRFTISRDNSKNTLYLQMNSLRAEDTAVYYCARAATWHDTHLDYWGQGTLVTVSS VL: DIQMTQSPSSLSASVGDRVTITCRASQSISSYVNWYQQKPGKAPKLLIYAVTSRASGVPSRFSGSGSGTDFTLTISSLQPEDFATYYCQQSYSTPLTFGGGTKVEIK in the records?
output: 3.43
